# ASSAY INFO: LNP characterisation by Zeta Sizer (particle size, polydispersity, charge)
# Type: physicochemical
# TEST CONDITIONS: LNP with saRNA; lipid:DOPE:Cholesterol:DMG-PEG 35:20:43.5:1.5; N/P approximately 40/1
Classify by measured Z-average (nm): T if it is equal to or exceeds 70 nm, F if it is smaller.

Reported Z-average (nm) reaches at least 70 nm for CCCCCCC(CCCC)C(=O)OCCCCN(CCCCOC(=O)C(CCCC)CCCCCC)CCN1CCN(CCO)CC1 (centres unmarked) ?
T

Reported Z-average (nm) reaches at least 70 nm for CCCCCCC(CCCC)C(=O)OCCCCN(CCCCOC(=O)C(CCCC)CCCCCC)CCN1CCN(CCNCCN)CC1 (centres unmarked) ?
T

Reported Z-average (nm) reaches at least 70 nm for CCCCCCC(CCCC)C(=O)OCCCCN(CCCCOC(=O)C(CCCC)CCCCCC)CCN1CCN(CCN)CC1 (centres unmarked) ?
F

Reported Z-average (nm) reaches at least 70 nm for CCCCCCCCCCC(O)CN(CCN1CCN(CCN(CC(O)CCCCCCCCCC)CC(O)CCCCCCCCCC)CC1)CCN(CC(O)CCCCCCCCCC)CC(O)CCCCCCCCCC (centres unmarked) [Compound C12-200, reference compound] ?
T

###

# ASSAY INFO: Body weight of mice in the in vivo study (tolerability)
# TEST CONDITIONS: Day 1; female SWISS mice, 1 μg LNP-formulated saRNA intramuscularly
PROPERTY NAME: Weight (g)
Lab book: enter the figure in g, no units written.

CCCCCCC(CCCC)C(=O)OCCCCN(CCCCOC(=O)C(CCCC)CCCCCC)CCN1CCN(CCO)CC1 (centres unmarked) [Compound 10-21]: 28.19
CCCCCCCCCCC(O)CN(CCN1CCN(CCN(CC(O)CCCCCCCCCC)CC(O)CCCCCCCCCC)CC1)CCN(CC(O)CCCCCCCCCC)CC(O)CCCCCCCCCC (centres unmarked) [Compound C12-200, reference compound]: 27.17
CCCCCCCCCCCCCCOC(=O)CCN(CCC(=O)OCCCCCCCCCCCCCC)CCN1CCN(CCN(CCC(=O)OCCCCCCCCCCCCCC)CCC(=O)OCCCCCCCCCCCCCC)CC1 [Comparator 1 (C1), reference compound]: 25.99
CCCCCCC(CCCC)C(=O)OCCCCN(CCCCOC(=O)C(CCCC)CCCCCC)CCN1CCN(CCN)CC1 (centres unmarked) [Compound 10-44]: 26.46

Which measured Weight value corresponds to CCCCCCC(CCCC)C(=O)OCCCCN(CCCCOC(=O)C(CCCC)CCCCCC)CCN1CCN(CCNCCN)CC1 (centres unmarked) [Compound 10-45] ?
25.79

###

Below is a list of entries, each paired with its recorded Weight value.
# ASSAY INFO: Body weight of mice in the in vivo study (tolerability)
# TEST CONDITIONS: Day 3; female SWISS mice, 1 μg LNP-formulated saRNA intramuscularly
# Description: Female SWISS mice (6 weeks old) were purchased from Janvier Laboratories (Paris, France) and kept in individually ventilated cages with access to food and water ad libitum. Mice were anesthetized with isoflurane (Zoetis, Louvain-La-Neuve, Belgium) (5% for induction and 2% for maintenance) and intramuscularly injected with a total of 1 μg in 100 μL Tris-HCL (50 μL per leg) LNP-formulated luciferase saRNA (for each group n=7). […]

Known Weight results, listed for orientation:
CCCCCCC(CCCC)C(=O)OCCCCN(CCCCOC(=O)C(CCCC)CCCCCC)CCN1CCN(CCN)CC1 (centres unmarked): 27.00 g
CCCCCCCCCCCCCCOC(=O)CCN(CCC(=O)OCCCCCCCCCCCCCC)CCN1CCN(CCN(CCC(=O)OCCCCCCCCCCCCCC)CCC(=O)OCCCCCCCCCCCCCC)CC1 [Comparator 1 (C1), reference compound]: 27.21 g
CCCCCCC(CCCC)C(=O)OCCCCN(CCCCOC(=O)C(CCCC)CCCCCC)CCN1CCN(CCO)CC1 (centres unmarked): 28.26 g
CCCCCCCCCCC(O)CN(CCN1CCN(CCN(CC(O)CCCCCCCCCC)CC(O)CCCCCCCCCC)CC1)CCN(CC(O)CCCCCCCCCC)CC(O)CCCCCCCCCC (centres unmarked) [Compound C12-200, reference compound]: 28.62 g

Which measured Weight value corresponds to CCCCCCC(CCCC)C(=O)OCCCCN(CCCCOC(=O)C(CCCC)CCCCCC)CCN1CCN(CCNCCN)CC1 (centres unmarked) ?
26.43 g

Recorded values, source patent US20250025429A1.
